- System: MDR1-MDCK cell monolayers
- assay-remarks: MDCK-MDR1 permeability assay, blood-brain-barrier (BBB) penetration potential
- Type: in vitro ADME
- condition-label: A-B direction
measured-attribute: General MDCK-MDR1: % Recov A-B (%)

[[record]]
compound = "COc1cc(-c2ccc(-c3ccc(N(C)C4CC5CCCC(C)(C4)N5)nn3)c(O)c2)cnn1 (single isomer, unassigned; ent2)"
assay_target = "MDR1-MDCK cell monolayers"
measured_attribute = "General MDCK-MDR1: % Recov A-B"
value_measured = 84

[[record]]
compound = "CN(c1ccc(-c2ccc(-n3ccnc3)cc2O)nn1)[C@@H]1C[C@H]2CC[C@@](C)(C1)N2 (single isomer, unassigned; ent1)"
assay_target = "MDR1-MDCK cell monolayers"
measured_attribute = "General MDCK-MDR1: % Recov A-B"
value_measured = 94

[[record]]
compound = "COc1cc(-c2ccc(-c3ccc(N(C)[C@@H]4C[C@H]5CC[C@@](C)(C4)N5)nn3)c(O)c2)cnn1 (single isomer, unassigned; ent1)"
assay_target = "MDR1-MDCK cell monolayers"
measured_attribute = "General MDCK-MDR1: % Recov A-B"
value_measured = 94

